Just for reference, PubChem BioAssay (EPA / NIEHS) is where these values come from.

assay: ATG_M_61_CIS: Attagene CIS-FACTORIAL HepG2 Assay for M61 Transcription Factor (Internal Marker) (AID 2282937); conditions: HepG2 Attagene CIS-FACTORIAL M61 internal marker reporter; actives raise or lower the signal
Calls of active or inactive are those of the source. The calls were made as follows: active = hit-call score of the fitted dose curve at least 0.9, where 1 is the maximum; inactive = score below 0.9.
QUANTITY KIND: outcome

Here are 5 compounds together with their reported answers.
1. CCCC[O][Al]([O]CCCC)[O]CCCC; inactive
2. COc1cccc(OC)c1O; inactive
3. Cc1ncc[nH]1; inactive
4. CCCC[P+](CCCC)(CCCC)CCCC; inactive
5. OC[C@H]1O[C@@H](Oc2ccc(O)cc2)[C@H](O)[C@@H](O)[C@@H]1O; inactive

input: Please report outcome for the following compound: "Cc1ccc(S(=O)(=O)Oc2ccc(N=Nc3ccc(-c4ccc(N=Nc5c(O)ccc6cc(S(=O)(=O)O)cc(S(=O)(=O)O)c56)c(C)c4)cc3C)cc2)cc1"
output: inactive

input: Please report outcome for the following compound: "O=C(O)c1cccnc1C(=O)O"
output: inactive

input: Please report outcome for the following compound: "COC(=O)c1ccc([N+](=O)[O-])cc1"
output: inactive

input: Please report outcome for the following compound: "O=C(O)CNc1ccccc1"
output: inactive

input: Please report outcome for the following compound: O=C(Nc1ccc([N+](=O)[O-])cc1)Nc1ccc([N+](=O)[O-])cc1 (tested in a mixture with another compound)
output: inactive

input: Please report outcome for the following compound: "CCN(CCN)c1cccc(C)c1"
output: inactive

input: Please report outcome for the following compound: "O=[N+]([O-])c1ccc(O)cc1C(F)(F)F"
output: inactive

input: Please report outcome for the following compound: "CC(C)OCCO"
output: inactive

input: Please report outcome for the following compound: "CCO/C=C1\N=C(c2ccccc2)OC1=O"
output: inactive

input: Please report outcome for the following compound: "Cc1cc(CCC(=O)OCCOCCOCCOC(=O)CCc2cc(C)c(O)c(C(C)(C)C)c2)cc(C(C)(C)C)c1O"
output: inactive

input: Please report outcome for the following compound: "CCCCCCCCCC(=O)OC"
output: inactive

input: Please report outcome for the following compound: "CCNCCO"
output: inactive

input: Please report outcome for the following compound: "C=CCN(CC=C)CC=C"
output: inactive

input: Please report outcome for the following compound: "C1CCOC1"
output: inactive

input: Please report outcome for the following compound: "CCCCOCC"
output: inactive

input: Please report outcome for the following compound: "CC/C=C\CCOC(=O)CC"
output: inactive

input: Please report outcome for the following compound: "O=C(O)c1ccc(O)cc1"
output: inactive

---

Target: Cellular tumor antigen p53 (Homo sapiens)
Assay: TOX21_p53_BLA_p3_ratio: Tox21 HCT-116 p53 Agonism Beta-lactamase Assay, Ratio, Phase 3 (AID 2283596)
Experimental: TOX21_p53_BLA_p3 is a cell-based, single-readout assay that uses HCT116, a human intestinal cell line, […] in a 1536-well plate.TOX21_p53_BLA_p3_ratio is an assay readout measuring reporter gene via receptor activity and designed using inducible reporter (beta lactamase induction) detected with GAL4 b-lactamase reporter gene. […] This assay endpoint, TOX21_p53_BLA_p3_ratio, was analyzed in the positive analysis fitting direction relative to DMSO as the negative control and baseline of activity. […]
Records with an inconclusive call do not appear. The source made the active and inactive calls. Rule for the calls: active = hit-call score of the fitted dose curve at least 0.9, where 1 is the maximum; inconclusive = response in the unintended direction; inactive = score below 0.9.
In this exercise, the only acceptable responses are 1 = active, -1 = inactive

1) C[C@H](CCC(=O)NCC(=O)O)[C@H]1CC[C@H]2[C@@H]3[C@H](O)C[C@@H]4C[C@H](O)CC[C@]4(C)[C@H]3C[C@H](O)[C@]12C; -1
2) COc1ccccc1N=Nc1c(S(=O)(=O)O)cc2cc(S(=O)(=O)O)cc(NC(C)=O)c2c1O; -1
3) C[C@@H]1CCN(C(=O)[C@H](CCCN=C(N)N)NS(=O)(=O)c2cccc3c2NC[C@H](C)C3)[C@@H](C(=O)O)C1; -1
4) COc1ccc(N=Nc2cc(C)c(N=Nc3ccc(S(=O)(=O)O)cc3)cc2OC)cc1; -1
5) CC(=O)CC(=O)Nc1ccc(C)cc1C; -1

input: Entry CCC(C)c1cc([N+](=O)[O-])cc([N+](=O)[O-])c1OC(=O)OC(C)C (stereo unspecified) : call = ?
output: 1

input: Entry "CCCC(=O)c1ccccc1" : call = ?
output: -1

input: Entry O=C1NC2NC(=O)NC2N1 (stereo unspecified) : call = ?
output: -1

---

Measured AC50 accompanies every entry in the list below.
biological target: human Dual Specificity Protein Phosphatase 3 (DUSP3), DUSP3 (gene 1845) (UniProt P51452); assay: NVS_ENZ_hDUSP3: NovaScreen (NVS) Enzymatic Assay for human Dual Specificity Protein Phosphatase 3 (DUSP3) (AID 2283152);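 also: phosphatase activity of recombinant human DUSP3 on a fluorogenic substrate without cells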
Sequence (P51452 whole entry, looked up): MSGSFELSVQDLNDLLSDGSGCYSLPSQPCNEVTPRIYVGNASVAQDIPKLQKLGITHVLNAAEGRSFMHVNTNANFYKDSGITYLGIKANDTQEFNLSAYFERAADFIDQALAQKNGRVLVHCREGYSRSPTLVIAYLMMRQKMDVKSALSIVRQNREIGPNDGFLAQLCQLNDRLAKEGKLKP
Activity calls are given as the source filed them. The calls were made as follows: active = hit-call score of the fitted dose curve at least 0.9, where 1 is the maximum; inconclusive = response in the unintended direction; inactive = score below 0.9.

Here are 3 compounds together with their reported answers.
1. c1ccc2cc(Nc3ccc(Nc4ccc5ccccc5c4)cc3)ccc2c1; 22.4 µM (active)
2. NC(=S)NNC(N)=S; 4.96 µM (active)
3. CN(C)C(=S)SC(=S)N(C)C; 0.326 µM (active)

Please examine the following record next.
input: Name the recorded AC50 of "C=C(C)C(=O)OCC(CC)(COC(=O)C(=C)C)COC(=O)C(=C)C" , assay system human Dual Specificity Protein Phosphatase 3 (DUSP3), DUSP3 (gene 1845) (UniProt P51452).
output: 12.4 µM (active)

---

assay: BSK_4H_SRB: Viability Assessment in the BioMAP Diversity Plus: 4H Assay (AID 2283027); settings: primary human endothelial cells (HUVEC);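 also: cells exposed to compound for 24 h before staining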;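 as to AC50: curves fitted both ways versus DMSO so AC50 may be loss or gain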
Calls of active or inactive are those of the source. Rule for the calls: active = hit-call score of the fitted dose curve at least 0.9, where 1 is the maximum; inactive = score below 0.9.
QUANTITY KIND: AC50

1. CSCCC=O; inactive
2. Oc1c(Cl)cc(Cl)c(Cl)c1Cc1c(O)c(Cl)cc(Cl)c1Cl; 6.35 µM (active)
3. CC(=O)Nc1ccc(C(=O)CCl)cc1; 6.69 µM (active)
4. c1ccc(CCc2ccccc2)cc1; 31 µM (active)
5. CCCCCCCCCCCCCCCC(=O)OC/C=C(C)/C=C/C=C(C)/C=C/C1=C(C)CCCC1(C)C; inactive

input: Please report AC50 for the following compound: C=CC(C)(O)CCC=C(C)C (stereo unspecified)
output: inactive

input: Please report AC50 for the following compound: CC(CN=Cc1ccccc1O)N=Cc1ccccc1O (stereo unspecified)
output: inactive

input: Please report AC50 for the following compound: "CS(=O)(=O)c1ccc(C2=C(c3ccccc3)C(=O)OC2)cc1"
output: inactive

---

target: Paired box protein Pax-6 (Homo sapiens) (UniProt P26367); test: ATG_Pax6_CIS: Attagene CIS-FACTORIAL HepG2 Assay for human Paired Box 6 (PAX6) (AID 2282956); details: HepG2 CIS-FACTORIAL PAX6 reporter transcription, RNA readout; actives raise or lower the signal
Sequence (P26367 whole entry, looked up): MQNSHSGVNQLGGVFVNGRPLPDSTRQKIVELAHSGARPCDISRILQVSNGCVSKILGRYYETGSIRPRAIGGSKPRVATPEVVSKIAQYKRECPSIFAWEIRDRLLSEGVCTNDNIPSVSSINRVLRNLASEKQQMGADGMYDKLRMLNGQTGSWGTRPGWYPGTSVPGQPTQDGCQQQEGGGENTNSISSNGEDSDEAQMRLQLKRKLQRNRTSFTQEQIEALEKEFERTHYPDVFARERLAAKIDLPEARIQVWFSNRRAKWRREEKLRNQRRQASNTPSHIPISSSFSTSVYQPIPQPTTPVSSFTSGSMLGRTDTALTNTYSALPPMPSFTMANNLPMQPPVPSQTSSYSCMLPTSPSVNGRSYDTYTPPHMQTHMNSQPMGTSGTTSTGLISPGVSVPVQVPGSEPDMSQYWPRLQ
Calls of active or inactive are those of the source. The calls were made as follows: active = hit-call score of the fitted dose curve at least 0.9, where 1 is the maximum; inactive = score below 0.9.
In this exercise, the only acceptable responses are Y (active), N (inactive)

Observe how each entry below is paired with its result.
1) CCCCCCOCCOCCO; N
2) O=CCc1ccccc1; N
3) COC(=O)c1ccc([N+](=O)[O-])cc1; N
4) N[C@@H](Cc1cc(I)c(Oc2cc(I)c(O)c(I)c2)c(I)c1)C(=O)O; N

input: Entry CCCCCCC(O)CCCCCCCCCCC(=O)O (stereo unspecified) : call = ?
output: N

input: Entry "CC(=O)c1c(C)c([N+](=O)[O-])c(C(C)(C)C)c([N+](=O)[O-])c1C" : call = ?
output: N

input: Entry "CC(=O)O[C@H]1C[C@@H]2CC[C@@]1(C)C2(C)C" : call = ?
output: N

input: Entry "COCCOCCOCCO" : call = ?
output: N

input: Entry COCCc1ccc(OCC(O)CNC(C)C)cc1 (stereo unspecified) : call = ?
output: N

input: Entry "C=Cc1ccncc1" : call = ?
output: Y

input: Entry "c1ccc(CN(Cc2ccccc2)Cc2ccccc2)cc1" : call = ?
output: N

---

experiment: BSK_3C_VCAM1: BioMAP Diversity Plus: 3C Assay for Vascular cell adhesion molecule 1 (VCAM1) Biomarker Activity (AID 2282999); conditions: BioMAP 3C HUVEC, VCAM1 ELISA, cytokine-stimulated; actives raise or lower the signal
Activity calls are given as the source filed them. How the source made its calls: active means hit-call score of the fitted dose curve at least 0.9, where 1 is the maximum; inactive means score below 0.9.
In this exercise, the only acceptable responses are class 1 (active), class 0 (inactive)

input: Entry "CC(C)(C)CC(C)(C)c1ccc(OCCOCC[N+](C)(C)Cc2ccccc2)cc1" : call = ?
output: class 1

input: Entry "c1ccc(Oc2ccccc2)cc1" : call = ?
output: class 1

input: Entry "CCN(CC)C(=O)N(CC)CC" : call = ?
output: class 0

input: Entry "CCCCOC(=O)CCCCCCCC(=O)OCCCC" : call = ?
output: class 0

input: Entry "Cc1cc(CCC(=O)OCCOCCOCCOC(=O)CCc2cc(C)c(O)c(C(C)(C)C)c2)cc(C(C)(C)C)c1O" : call = ?
output: class 0

input: Entry "c1ccc2cc(Nc3ccc(Nc4ccc5ccccc5c4)cc3)ccc2c1" : call = ?
output: class 0
